# test-target: UniProt P42892
# Sequence (P42892 whole entry): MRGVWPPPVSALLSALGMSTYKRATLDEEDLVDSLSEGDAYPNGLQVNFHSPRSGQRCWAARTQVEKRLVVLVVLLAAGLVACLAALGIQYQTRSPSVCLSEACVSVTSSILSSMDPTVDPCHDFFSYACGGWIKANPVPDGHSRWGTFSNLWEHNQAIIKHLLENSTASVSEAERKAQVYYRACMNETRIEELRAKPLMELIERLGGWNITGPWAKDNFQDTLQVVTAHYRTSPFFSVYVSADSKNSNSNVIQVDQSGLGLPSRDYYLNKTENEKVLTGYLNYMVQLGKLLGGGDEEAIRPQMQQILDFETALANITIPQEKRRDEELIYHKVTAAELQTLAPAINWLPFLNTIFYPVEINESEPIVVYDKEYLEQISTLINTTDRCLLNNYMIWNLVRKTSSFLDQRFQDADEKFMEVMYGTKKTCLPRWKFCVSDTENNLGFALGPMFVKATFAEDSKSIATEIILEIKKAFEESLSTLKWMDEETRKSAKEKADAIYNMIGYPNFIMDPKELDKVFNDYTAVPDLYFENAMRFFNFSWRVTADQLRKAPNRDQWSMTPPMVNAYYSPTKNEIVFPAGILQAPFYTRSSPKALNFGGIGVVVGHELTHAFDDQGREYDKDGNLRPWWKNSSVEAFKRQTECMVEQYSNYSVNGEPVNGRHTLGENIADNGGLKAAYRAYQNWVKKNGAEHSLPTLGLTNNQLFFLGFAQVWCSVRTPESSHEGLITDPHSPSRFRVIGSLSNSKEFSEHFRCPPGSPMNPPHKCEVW
# protocol-notes: Inhibition of endothelin-converting enzyme in human umbilical vein endothelial cells
# Assay type: cell-based, Endothelial cell
quantity-measured: IC50 (µM)

// worked examples, IC50 included
compound	unit-symbol	IC50
NC(=O)CCC(NC(=O)C(Cc1ccccc1)CP(=O)(O)[C@H](Cc1ccccc1)NC(=O)OCc1ccccc1)C(=O)O (mixture of isomers)	µM	6
CC(C)CC(NC(=O)C(Cc1ccccc1)CP(=O)(O)[C@H](Cc1ccccc1)NC(=O)OCc1ccccc1)C(=O)O (mixture of isomers; form 2)	µM	20
O=C(O)CNC(=O)C(Cc1ccccc1)CP(=O)(O)[C@H](Cc1ccccc1)NC(=O)OCc1ccccc1 (stereo partly drawn)	µM	80
O=C(O)CC(NC(=O)C(Cc1ccccc1)CP(=O)(O)[C@H](Cc1ccccc1)NC(=O)OCc1ccccc1)C(=O)O (mixture of isomers)	µM	30
O=C(N[C@@H](Cc1ccccc1)P(=O)(O)CC(Cc1ccccc1)C(=O)NC(Cc1ccc(O)cc1)C(=O)O)OCc1ccccc1 (single isomer, unassigned)	µM	7
O=C(O)CCC(NC(=O)C(Cc1ccccc1)CP(=O)(O)[C@H](Cc1ccccc1)NC(=O)OCc1ccccc1)C(=O)O (mixture of isomers)	µM	25

1. O=C(N[C@@H](Cc1ccccc1)P(=O)(O)CC(Cc1ccccc1)C(=O)NC(Cc1c[nH]cn1)C(=O)O)OCc1ccccc1 (mixture of isomers)
2. O=C(N[C@@H](Cc1ccccc1)P(=O)(O)CC(Cc1ccccc1)C(=O)NC(Cc1ccc(O)cc1)C(=O)O)OCc1ccccc1 (mixture of isomers)
Q. Between item 1 and item 2 , which reported IC50 is smaller? Please respond with the label that marks your chosen entry.
A. 2
(2: 12 µM, 1: 20 µM)

P. CC(C)[C@H](NC(=O)C(Cc1ccccc1)CP(=O)(O)[C@H](Cc1ccccc1)NC(=O)OCc1ccccc1)C(N)=O (stereo partly drawn)
Q. CCCCC(NC(=O)C(Cc1ccccc1)CP(=O)(O)[C@H](Cc1ccccc1)NC(=O)OCc1ccccc1)C(=O)O (mixture of isomers)
Q. Between item P and item Q , which reported IC50 is smaller? Please respond with the label that marks your chosen entry.
A. Q

a. CC(C)CC(NC(=O)C(Cc1ccccc1)CP(=O)(O)[C@H](Cc1ccccc1)NC(=O)OCc1ccccc1)C(=O)O (mixture of isomers; form 1)
b. O=C(O)CCNC(=O)C(Cc1ccccc1)CP(=O)(O)[C@H](Cc1ccccc1)NC(=O)OCc1ccccc1 (mixture of isomers)
Q. Between item a and item b , which reported IC50 is smaller? Please respond with the label that marks your chosen entry.
A. a
